Values were extracted from patent US20240173377A1.

assayedTarget: HLA DRB1*0301 (human)
assayExplanation: HLA class II competition binding assay
endpoint: IC50 (nM)

INSERT INTO measurements (binder, measured) VALUES
  ('EEQYNSTYTVVSVLTVLHQD [SEQ ID NO 114]', 1570);
